experiment: differential killing of epithelial or mesenchymal cells, primary screen, imaging, PC-3E GFP, TEM4-18 mCherry, co-culture (AID 1345086); settings: imaging cell counts, at 1 µM, actives lie on both sides, counts scaled to control wells, 1 = unselective;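 also: normalised mesenchymal count divided by normalised epithelial count so high means epithelial killing; cells exposed to compound for 72 h before imaging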
Quick rule: red/green cell ratio (normalised) of at least 1 means y, below that means n.

These solved cases illustrate the format of a correct answer.
compound=C/C1=C\[C@@H](C)C/C=C/[C@H]2[C@@H]3O[C@]3(C)[C@@H](C)[C@H]3[C@H](Cc4c[nH]c5ccccc45)NC(=O)[C@]32C(=O)/C=C/C(=O)[C@@H]1O group=n
compound="CCC(C)C(=O)O[C@@H]1C[C@@]2(C)[C@H](c3ccoc3)OC(=O)CC23OC2(C)O[C@]14C1(C)[C@@H](CC(=O)OC)C5(C)CC1(O)[C@](O)(C5OC(=O)C1(C)OC1C)[C@@H](OC(C)=O)[C@]34O2 (stereo partly specified)" group=y
compound="CN1CCCCC1c1ccc(-c2cccnc2)nc1 (stereo unspecified)" group=y
compound=CC1(C)CC(=O)C(Cl)C(=O)C1 group=n
compound=C[CH2][Hg+].O=C([O-])c1ccccc1[S-].[Na+] group=n
compound=Nc1ccc(-c2ccccc2)cc1 group=y
compound="CC1CC[C@]2(NC1)O[C@H]1CC3C4CC[C@H]5C[C@@H](O)CC[C@]5(C)C4CC[C@]3(C)[C@H]1[C@@H]2C (stereo partly specified)" group=n
compound=COc1cc(O)c2c(=O)oc3cc(O)cc(C)c3c2c1 group=n

# input for lookup
# check: red/green cell ratio (normalised) of CC(=O)OC1CC[C@@]2(C)C(CCC3C2CC[C@]2(C)C(C4=CC(=O)OC4)C(OC(C)=O)CC32O)C1 (stereo partly specified) is greater than or equal to 1
n

----------
target: L-lactate dehydrogenase (Plasmodium falciparum (isolate CDC / Honduras)) (UniProt Q27743); assay: PfLDH activity inhibition – cell lysate, 3D7 strain, counter-screen for P. falciparum growth inhibition project (AID 2304);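 also: 0% = vehicle and 100% = reference inhibitor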; conditions: P. falciparum 3D7 crude extract, LDH APAD/NBT absorbance; at 2 µM; stronger effect = higher value
Sequence (Q27743 whole entry, looked up): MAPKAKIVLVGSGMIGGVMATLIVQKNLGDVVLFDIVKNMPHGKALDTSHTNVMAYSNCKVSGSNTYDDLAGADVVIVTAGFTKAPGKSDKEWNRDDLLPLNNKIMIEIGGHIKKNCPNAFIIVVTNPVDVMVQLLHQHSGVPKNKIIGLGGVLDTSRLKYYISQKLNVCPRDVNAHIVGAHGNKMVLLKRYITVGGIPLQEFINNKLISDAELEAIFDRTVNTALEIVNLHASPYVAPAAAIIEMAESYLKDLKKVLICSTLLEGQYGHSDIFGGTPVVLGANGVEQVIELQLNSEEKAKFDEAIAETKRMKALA
Experimental Readout: inhibition (%)
Form entry: value (%) — number only.

For orientation, consider the following solved cases.
compound=C/C=C1/CN2CC[C@H]1C[C@H]2[C@H](O)c1ccnc2ccc(OC)cc12 readout_number=0
compound="CCOC(C(=O)OCC1CCCN(C)C1)(c1ccccc1)c1ccccc1 (centres undefined)" readout_number=0
compound=O=C(NC1CCN(CC2(c3ccc(Cl)cc3)CCC2)CC1)c1cscn1 readout_number=-1

Now take the following compound into account.
Notebook entry, L-lactate dehydrogenase (Plasmodium falciparum (isolate CDC / Honduras)) (UniProt Q27743) assay: inhibition of `CCOC(=O)c1c(C)n(C2CCCCCC2)c2cc(Br)c(O)cc12` = ?
-1

----------
test: viability rescue of complex I mutant cybrids, primary screen, cell-based, galactose medium, ATP luminescence (AID 1645843); details: complex I mutant cybrid cells, 72 h, stronger effect = higher value;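 also: positive z means more ATP and so rescue of galactose-driven cybrid death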
The source made the active and inactive calls.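 Rule for the calls: active = z-score of at least 1.8 in each of two replicates, scored against plate mean and spread of sample wells; inactive = the rest.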
Experimental Readout: z-score

For orientation, consider the following solved cases.
compound=CCCN1CCc2cccc3c2[C@H]1Cc1ccc(O)c(O)c1-3 experimental_readout=z-score result="-1.03 (inactive)"
compound=Oc1ccc2c3c1O[C@H]1c4[nH]c5ccccc5c4C[C@@]4(O)C(C2)N(CC2CC2)CC[C@]314 experimental_readout=z-score result="0.53 (inactive)"
compound=NC(=O)CN1CCCC1=O experimental_readout=z-score result="0.785 (inactive)"
compound=O=C1C2CCN(CC2)C1(CO)CO experimental_readout=z-score result="-0.76 (inactive)"
compound=CC(C)n1cnc2c(C(=O)N[C@H]3CN4CCC3CC4)cc(Cl)cc21 experimental_readout=z-score result="2.03 (inactive)"
compound=C[C@H](NC[C@H](O)CP(=O)(O)CC1CCCCC1)c1ccc(Cl)c(Cl)c1 experimental_readout=z-score result="0.2 (inactive)"
compound=NP(N)(=O)NC(=O)c1ccc(F)cc1 experimental_readout=z-score result="-0.31 (inactive)"
compound="CC12CCC(=O)C=C1CCC1C2CCC2(C)C(O)CCC12 (centres undefined)" experimental_readout=z-score result="-0.235 (inactive)"

Now take the following compound into account.
Could you tell me which z-score is on file for CS(=N)(=O)CC[C@H](N)C(=O)O (some centres undefined) ?
0.45 (inactive)

----------
biological target: Single-stranded DNA-binding protein (Escherichia coli (strain K12)); assay: E. coli SSB displacement from DNA, counter-screen for HCV NS3 helicase inhibitor project, biochemical, fluorescence polarization, NIH Clinical Collection (AID 743271); conditions: stronger effect = higher value, concentration not given here
Each item that follows carries a reported inhibition.
Form entry: value (%) — number only.

compound=C[C@]12Cc3cn[nH]c3C[C@@H]1CC[C@@H]1[C@@H]2CC[C@@]2(C)[C@H]1CC[C@]2(C)O readout_number=-2.76
compound=Oc1cc(Cl)ccc1Oc1ccc(Cl)cc1Cl readout_number=-0.48
compound=C[C@]12CC[C@H]3[C@@H](CCC4=CC(=O)CC[C@@H]43)[C@@H]1CC[C@@H]2O readout_number=-0.87
compound=NC(=NCc1ccc(Cl)cc1)SCCCc1cnc[nH]1 readout_number=0.39

Could you tell me which inhibition is on file for `Clc1ccc(CON=C(Cn2ccnc2)c2ccc(Cl)cc2Cl)c(Cl)c1` ?
7.6

Could you tell me which inhibition is on file for CC(C)(O)[C@@H]1[C@H]2OC(=O)[C@@H]1[C@]1(O)C[C@H]3O[C@]34C(=O)O[C@H]2[C@]14C (tested in a mixture with another compound) ?
-0.1

Could you tell me which inhibition is on file for `CS(=O)(=O)Nc1ccc(Cc2noc(-c3ccc4[nH]cc(CCN)c4c3)n2)cc1` ?
36.6

----------
Each item that follows carries a reported cell count.
assay: sensitizers of A549 cells to miR-34 induction, primary screen, imaging, A549 dox-inducible miR-34, nuclei and caspase counts (AID 1347080); conditions: A549 miR-34 inducible, Hoechst nuclei count, 48 h; measured here: total cells without miR-34 induction
Please respond with just the number, no unit label.

For orientation, consider the following solved cases.
compound="CC(C)(O)[C@@H]1[C@H]2OC(=O)[C@@H]1[C@]1(O)C[C@H]3O[C@]34C(=O)O[C@H]2[C@]14C (tested in a mixture with another compound)" readout_number=10500
compound=CCCN(CCC)CCc1ccc(O)c(O)c1 readout_number=10200
compound=C[C@]12CC[C@H]3[C@@H](CCC4=CC(=O)CC[C@@H]43)[C@@H]1CC[C@@H]2O readout_number=8800
compound=CCCN1CCc2cc(O)cc3c2[C@H]1Cc1ccc(O)c(O)c1-3 readout_number=10200
compound="CCC(=O)O[C@H]1CCC2C3CCC4=CC(=O)CC[C@]4(C)C3CC[C@@]21C (stereo partly drawn)" readout_number=11300
compound=c1cncc([C@H]2CCCCN2)c1 readout_number=9960

Could you tell me which cell count is on file for `c1cc2ccsc2c(N2CCNCC2)n1` ?
5520

Could you tell me which cell count is on file for `CCCCC/C=C\C/C=C\C/C=C\C/C=C\CCCC(=O)NCCCC(=O)O` ?
5760

----------
assay: sensitizers of A549 cells to miR-34 induction, primary screen, imaging, A549 dox-inducible miR-34, nuclei and caspase counts (AID 1347080); conditions: A549 miR-34 inducible, Hoechst nuclei count, 48 h; measured here: total cells with miR-34 induction; stronger effect = lower value
Experimental Readout: cell count
Please respond with just the number, no unit label.

compound=O=C1CN=C(c2cccc(Br)c2)c2oc3ccccc3c2N1 experimental_readout="cell count" readout_number=2110

Could you tell me which cell count is on file for `O=C1CC[C@@]2(O)[C@H]3Cc4ccc(O)c5c4C2(CCN3CC2CC2)[C@H]1O5` ?
11500

Could you tell me which cell count is on file for `CCCN1CCO[C@@H]2c3cc(O)ccc3OC[C@@H]21` ?
8140

Could you tell me which cell count is on file for `Oc1ccc(C2(c3ccc(O)cc3)CCCCC2)cc1` ?
7610

Could you tell me which cell count is on file for NCC(O)c1cc(O)c(O)cc1F (centres undefined) ?
10300

Could you tell me which cell count is on file for `N[C@@H](Cn1oc(=O)[nH]c1=O)C(=O)O` ?
8070

Could you tell me which cell count is on file for `C[N+](C)(C)CC(=O)O` ?
9950

Could you tell me which cell count is on file for C=CC(C)(C)c1cc2cc3c(cc2oc1=O)OC(C(C)(C)O)C3 (centres undefined) ?
5210

Could you tell me which cell count is on file for `Clc1ccc(CON=C(Cn2ccnc2)c2ccc(Cl)cc2Cl)c(Cl)c1` ?
3280

Could you tell me which cell count is on file for `O=[N+]([O-])C=Cc1ccc2c(c1)OCO2` ?
5450

Could you tell me which cell count is on file for `O=C1OCCN1/N=C/c1ccc([N+](=O)[O-])o1` ?
9350

Could you tell me which cell count is on file for `C[N+]1=Cc2cc3c(cc2CC1)OCO3` ?
9060

Could you tell me which cell count is on file for `CCCN1CCC[C@@H]2Cc3nc(N)ncc3C[C@H]21` ?
9790

Could you tell me which cell count is on file for `CCCCC/C=C\C/C=C\C/C=C\C/C=C\CCCC(=O)Nc1ccc(O)cc1C` ?
6030
